All figures here come from paper PMC5856786.

Biological target: recombinant human DHODH (Homo sapiens, UniProt Q02127)
Sequence (Q02127 31-395 limits assumed): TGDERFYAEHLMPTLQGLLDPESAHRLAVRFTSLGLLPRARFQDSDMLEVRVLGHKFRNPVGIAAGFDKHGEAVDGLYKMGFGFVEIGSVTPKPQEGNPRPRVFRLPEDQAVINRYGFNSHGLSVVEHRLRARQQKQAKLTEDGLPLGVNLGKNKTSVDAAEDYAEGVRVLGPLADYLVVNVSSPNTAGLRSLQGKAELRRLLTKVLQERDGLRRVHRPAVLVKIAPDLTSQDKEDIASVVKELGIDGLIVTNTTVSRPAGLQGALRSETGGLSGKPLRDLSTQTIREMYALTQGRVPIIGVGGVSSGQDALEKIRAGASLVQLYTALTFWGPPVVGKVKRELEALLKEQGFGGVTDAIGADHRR
Test: Endpoint DHODH enzyme assay (coenzyme Q10, DCIP)
Format: biochemical
Design: purchased Prospecbio ENZ-642
Conditions: compound at 10 µM; Supplementary Table 6, 30,000 compound library
Metric: remaining activity at 10 µM (%)

Some molecules with recorded remaining activity at 10 µM:
Cn1c2ccccc2n2c(C(O)C(Cl)(Cl)Cl)c(-c3ccccc3)nc12 (stereo not shown) ... 68.4
COc1ccc2c(c1)c(C=Cc1nc3ccccc3c(=O)[nH]1)c(C)n2C ... 66.1

a. COc1ccc(C=NN2CCN(Cc3ccccc3)CC2)c(OC)c1
b. CC(C)(C)c1ccc(C(=O)NC(=S)Nc2cccc(NC(=O)c3ccccc3)c2)cc1
Challenge: Given a and given b , which shows the smaller recorded remaining activity at 10 µM? Give the label under which the chosen entry appears.
Response given: b
(b: 63.2%, a: 101%)
